The measurements presented in this section are drawn from patent US10064848B2.

Let's go through some pIC50 measurements on CYP3A4m (Homo sapiens, UniProt P08684) together.
Sequence (P08684 whole entry): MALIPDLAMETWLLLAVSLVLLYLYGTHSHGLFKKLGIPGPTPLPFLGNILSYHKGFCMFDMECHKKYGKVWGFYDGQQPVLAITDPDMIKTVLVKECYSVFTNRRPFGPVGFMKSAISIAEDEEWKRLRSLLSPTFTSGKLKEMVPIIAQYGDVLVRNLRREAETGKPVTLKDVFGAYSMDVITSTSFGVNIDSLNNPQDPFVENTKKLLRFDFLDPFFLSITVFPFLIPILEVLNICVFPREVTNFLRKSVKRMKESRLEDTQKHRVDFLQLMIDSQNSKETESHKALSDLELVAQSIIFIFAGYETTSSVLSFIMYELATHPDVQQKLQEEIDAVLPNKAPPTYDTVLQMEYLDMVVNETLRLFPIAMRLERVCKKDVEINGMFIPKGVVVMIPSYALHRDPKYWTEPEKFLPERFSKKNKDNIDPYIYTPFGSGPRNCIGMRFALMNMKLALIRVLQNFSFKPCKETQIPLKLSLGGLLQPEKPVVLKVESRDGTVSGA
pIC50: −log10 of the molar value.

- TEST SMILES: "Cc1cncc(Oc2cc(=O)n(C)c(Nc3ccc(I)cc3F)c2C(N)=O)c1"
  pIC50: "< 5.00"
- TEST SMILES: "Cc1ncccc1Oc1cc(=O)n(C)c(Nc2ccc(I)cc2F)c1C(N)=O"
  pIC50: "< 5.00"
- TEST SMILES: "Cc1ccc(Oc2cc(=O)n(C)c(Nc3ccc(I)cc3F)c2C(N)=O)cn1"
  pIC50: "< 5.00"
- TEST SMILES: "CCS(=O)(=O)Nc1cccc(Oc2cc(=O)n(C)c(Nc3ccc(I)cc3F)c2C(N)=O)c1C"
  pIC50: "< 4.30"

----------
List of IC50 values.
molecular target: MEK1 (Recombinant Human Protein) (Homo sapiens, UniProt Q02750); assay: MEK1 kinase inhibition assay (Z'-LYTE Kinase Assay Kit-Ser/Thr 03 Peptide); conditions: 4 hours at 37° C, read-out: IC50 for inhibiting MEK kinase (MEK1)
Sequence (Q02750 whole entry): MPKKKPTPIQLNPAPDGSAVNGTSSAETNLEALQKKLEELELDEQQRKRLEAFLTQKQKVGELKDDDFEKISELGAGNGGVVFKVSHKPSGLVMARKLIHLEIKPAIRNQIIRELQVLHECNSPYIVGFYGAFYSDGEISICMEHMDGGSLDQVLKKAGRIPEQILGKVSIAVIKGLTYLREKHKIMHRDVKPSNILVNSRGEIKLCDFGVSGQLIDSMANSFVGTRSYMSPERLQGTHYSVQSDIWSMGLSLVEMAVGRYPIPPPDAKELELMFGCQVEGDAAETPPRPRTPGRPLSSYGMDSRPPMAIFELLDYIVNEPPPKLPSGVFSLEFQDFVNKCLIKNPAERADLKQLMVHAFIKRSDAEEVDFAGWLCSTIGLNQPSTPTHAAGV
READOUT: IC50 (nM)

- TEST SMILES: "Cc1cncc(Oc2cc(=O)n(C)c(Nc3ccc(I)cc3F)c2C(N)=O)c1"
  UNIT ABBREVIATION: "nM"
  REPORTED VALUE: 6
- TEST SMILES: "Cc1ccc(F)cc1Oc1cc(=O)n(C)c(Nc2ccc(I)cc2F)c1C(N)=O"
  UNIT ABBREVIATION: "nM"
  REPORTED VALUE: 5.9
- TEST SMILES: "Cc1ccc(Oc2cc(=O)n(C)c(Nc3ccc(I)cc3F)c2C(N)=O)cn1"
  UNIT ABBREVIATION: "nM"
  REPORTED VALUE: 3.9
- TEST SMILES: "Cc1ccccc1Oc1cc(=O)n(C)c(Nc2ccc(I)cc2F)c1C(N)=O"
  UNIT ABBREVIATION: "nM"
  REPORTED VALUE: 4.2
- TEST SMILES: "Cc1cccc(Oc2cc(=O)n(C)c(Nc3ccc(I)cc3F)c2C(N)=O)c1C"
  UNIT ABBREVIATION: "nM"
  REPORTED VALUE: 7.9
- TEST SMILES: "Cc1ncccc1Oc1cc(=O)n(C)c(Nc2ccc(I)cc2F)c1C(N)=O"
  UNIT ABBREVIATION: "nM"
  REPORTED VALUE: 3.6
- TEST SMILES: "Cc1ccc(Oc2cc(=O)n(C)c(Nc3ccc(I)cc3F)c2C(N)=O)c(C)c1"
  UNIT ABBREVIATION: "nM"
  REPORTED VALUE: 2.9
- TEST SMILES: "Cc1c(NC(=O)C2CC2)cccc1Oc1cc(=O)n(C)c(Nc2ccc(I)cc2F)c1C(N)=O"
  UNIT ABBREVIATION: "nM"
  REPORTED VALUE: 5.5
- TEST SMILES: "Cc1cccc(C)c1Oc1cc(=O)n(C)c(Nc2ccc(I)cc2F)c1C(N)=O"
  UNIT ABBREVIATION: "nM"
  REPORTED VALUE: 6.3
- TEST SMILES: "Cc1cc(F)ccc1Oc1cc(=O)n(C)c(Nc2ccc(I)cc2F)c1C(N)=O"
  UNIT ABBREVIATION: "nM"
  REPORTED VALUE: 4.3
- TEST SMILES: "COc1cccc(Oc2cc(=O)n(C)c(Nc3ccc(I)cc3F)c2C(N)=O)c1C"
  UNIT ABBREVIATION: "nM"
  REPORTED VALUE: 9.5
- TEST SMILES: "CC(=O)c1cccc(Oc2cc(=O)n(C)c(Nc3ccc(I)cc3F)c2C(N)=O)c1C"
  UNIT ABBREVIATION: "nM"
  REPORTED VALUE: 5.5
- TEST SMILES: "Cc1c(Oc2cc(=O)n(C)c(Nc3ccc(I)cc3F)c2C(N)=O)cccc1O[C@H]1CCOC1"
  UNIT ABBREVIATION: "nM"
  REPORTED VALUE: 6
- TEST SMILES: "Cc1c(O)cccc1Oc1cc(=O)n(C)c(Nc2ccc(I)cc2F)c1C(N)=O"
  UNIT ABBREVIATION: "nM"
  REPORTED VALUE: 4
- TEST SMILES: "Cc1ccc(Oc2cc(=O)n(C)c(Nc3ccc(I)cc3F)c2C(N)=O)c(F)c1"
  UNIT ABBREVIATION: "nM"
  REPORTED VALUE: 8.4
- TEST SMILES: "Cc1c(F)cccc1Oc1c(C(N)=O)c(Nc2ccc(I)cc2F)n(C)c(=O)c1F"
  UNIT ABBREVIATION: "nM"
  REPORTED VALUE: 3.9
- TEST SMILES: "Cc1cccc(Oc2cc(=O)n(C)c(Nc3ccc(I)cc3F)c2C(N)=O)c1F"
  UNIT ABBREVIATION: "nM"
  REPORTED VALUE: 5.8
- TEST SMILES: "CCS(=O)(=O)Nc1cccc(Oc2c(C(N)=O)c(Nc3ccc(I)cc3F)n(C)c(=O)c2F)c1C"
  UNIT ABBREVIATION: "nM"
  REPORTED VALUE: 3.4
- TEST SMILES: "Cc1c(F)cccc1Oc1cc(=O)n(C)c(Nc2ccc(I)cc2F)c1C(=O)NC[C@H](O)CO"
  UNIT ABBREVIATION: "nM"
  REPORTED VALUE: 26
- TEST SMILES: "Cc1c(F)cccc1Oc1cc(=O)n(C)c(Nc2ccc(I)cc2F)c1C(N)=O"
  UNIT ABBREVIATION: "nM"
  REPORTED VALUE: 4.7
- TEST SMILES: "CCS(=O)(=O)Nc1cccc(Oc2c(C(N)=O)c(Nc3ccc(I)cc3F)n(C)c(=O)c2Cl)c1C"
  UNIT ABBREVIATION: "nM"
  REPORTED VALUE: 4
- TEST SMILES: "Cc1c(Cl)cccc1Oc1cc(=O)n(C)c(Nc2ccc(I)cc2F)c1C(N)=O"
  UNIT ABBREVIATION: "nM"
  REPORTED VALUE: 6.2
- TEST SMILES: "Cc1c(F)cccc1Oc1cc(=O)n(C)c(Nc2ccc(I)cc2F)c1C(=O)NC[C@@H](O)CO"
  UNIT ABBREVIATION: "nM"
  REPORTED VALUE: 28.3
- TEST SMILES: "Cc1ccc(Oc2cc(=O)n(C)c(Nc3ccc(I)cc3F)c2C(N)=O)c(Cl)c1"
  UNIT ABBREVIATION: "nM"
  REPORTED VALUE: 8.2
